Collected set of log10 IC50 measured with Vasopressin V2 receptor (Rattus norvegicus, UniProt Q00788) across studies.
Sequence (Q00788 whole entry): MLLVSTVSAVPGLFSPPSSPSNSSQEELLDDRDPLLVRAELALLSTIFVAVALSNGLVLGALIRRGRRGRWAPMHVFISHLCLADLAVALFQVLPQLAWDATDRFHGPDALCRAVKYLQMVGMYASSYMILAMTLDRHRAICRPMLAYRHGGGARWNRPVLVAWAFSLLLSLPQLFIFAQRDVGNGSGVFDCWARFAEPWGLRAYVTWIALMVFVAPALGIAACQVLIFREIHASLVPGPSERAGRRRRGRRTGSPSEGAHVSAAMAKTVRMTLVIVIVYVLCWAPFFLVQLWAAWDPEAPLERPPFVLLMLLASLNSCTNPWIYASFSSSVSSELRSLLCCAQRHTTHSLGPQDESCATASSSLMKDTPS
// do not treat as linear: log10 of IC50, unit nM

{"molecule": "O=C(Nc1ccc(C(=O)N2Cc3cccn3Cc3ccccc32)cc1)c1ccccc1Br", "log10 IC50": 0.85}
{"molecule": "CC1(C)[C@@H]2CC[C@@]1(CS(=O)(=O)N1CCC3(CCc4ccccc43)CC1)[C@@H](N1C(=O)NC(CN)C1=O)C2 (stereo partly drawn)", "log10 IC50": 3.32}
{"molecule": "Cc1cccc(C(=O)Nc2ccc(C(=O)N3Cc4cccn4Cc4ccccc43)cc2)c1C", "log10 IC50": 1.11}
{"molecule": "CC(C)NC(=O)C[C@@H]1CCCN(C(=O)c2ccc(N3CCCC3)cc2Cl)c2ccccc21", "log10 IC50": 2.59}
{"molecule": "CC1(C)[C@@H]2CC[C@@]1(CS(=O)(=O)N1CCC3(CCc4ccccc43)CC1)[C@@H](N1C(=O)CN(CC(=O)Nc3ncc[nH]3)C1=O)C2", "log10 IC50": 2.87}

Let us move to another entry and its log10 IC50.
Dear colleague, I am looking for the recorded log10 IC50 of the following molecule: CC1(C)[C@@H]2CC[C@@]1(CS(=O)(=O)N1CCC3(CCc4ccccc43)CC1)[C@@H](N1C(=O)CN(Cc3nn[nH]n3)C1=O)C2
3.64
